Values were extracted from patent US4308273A.

Reported Changes in heart rate when injected intravenously is given for each of the following molecules.
method.description: Effects of intravenous injection on mean arterial pressure, heart rate and vertebral arterial flow in anesthetized dogs
measurement.setup: anesthetized dogs, 1 mg/kg intravenously
value.type: Changes in heart rate when injected intravenously

molecule | result
COc1ccc(CN2CCc3ncccc3C2)cc1OC [Compound 46] | +32 Δ beats/min
Cc1ccc(C)c(C=CCN2CCc3ncccc3C2)c1 [Compound 72] | +48 Δ beats/min
c1ccc(CN2CCc3ncccc3C2)cc1 [Compound 31] | +16 Δ beats/min
CC(C)c1cccc(CN2CCc3ncccc3C2)c1 [Compound 36] | +8 Δ beats/min
Clc1ccccc1C=CCN1CCc2ncccc2C1 [Compound 61] | +24 Δ beats/min
Clc1ccc(C=CCN2CCc3ncccc3C2)cc1Cl [Compound 71] | +40 Δ beats/min

---

method.description: Acute toxicity (LD50) by intraperitoneal injection
measurement.setup: mouse, in vivo, ip; mice, intraperitoneal injection (Table 4)
The threshold is 200 mg/kg. Values of LD50 beneath it are tagged yes (1); values meeting or exceeding it are tagged no (0).

smiles | category.label
CCCCCCCCCCN1CCc2ncccc2C1 | yes (1)
Clc1ccc(CN2CCc3ncccc3C2)cc1Cl | no (0)
Cc1ccc(C)c(C=CCN2CCc3ncccc3C2)c1 | no (0)
Cc1ccc(CN2CCc3ncccc3C2)cc1 | no (0)

---

method.description: Effects of intravenous injection on mean arterial pressure, heart rate and vertebral arterial flow in anesthetized dogs
measurement.setup: Canis lupus familiaris, iv, read-out: Percent increase in vertebral arterial flow when injected intravenously
Rule: change in vivo at 1 mg/kg below 30% gives Satisfied. Equal to or above 30% gives Not satisfied.

compound | category.label
CC(C)c1cccc(CN2CCc3ncccc3C2)c1 [Compound 36] | Satisfied
CC(C)=CCC/C(C)=C/CN1CCc2ncccc2C1 [Compound 20] | Satisfied
Cc1ccc(CN2CCc3ncccc3C2)cc1 [Compound 34] | Satisfied
Clc1ccc(C=CCN2CCc3ncccc3C2)c(Cl)c1 [Compound 70] | Not satisfied
COc1ccc(CN2CCc3ncccc3C2)cc1OC [Compound 46] | Not satisfied
CNCCc1ccccn1 [betahistine, reference compound] | Satisfied
c1ccc(CN2CCc3ncccc3C2)cc1 [Compound 31] | Not satisfied
CCCCCCCN1CCc2ncccc2C1 [Compound 9] | Satisfied
CC(C)c1ccc(CN2CCc3ncccc3C2)cc1 [Compound 37] | Not satisfied
Clc1ccc(C=CCN2CCc3ncccc3C2)cc1Cl [Compound 71] | Not satisfied
CCCOc1cc(CN2CCc3ncccc3C2)ccc1OC [Compound 49] | Satisfied
CC(C)(C)c1ccc(CN2CCc3ncccc3C2)cc1 [Compound 38] | Satisfied
Cc1ccc(C)c(C=CCN2CCc3ncccc3C2)c1 [Compound 72] | Not satisfied
O=[N+]([O-])c1ccccc1C=CCN1CCc2ncccc2C1 [Compound 67] | Not satisfied
CCc1ccc(CN2CCc3ncccc3C2)cc1 [Compound 35] | Satisfied
CCCCCCCCCCN1CCc2ncccc2C1 [Compound 11] | Satisfied
C(=C\c1ccccc1)/CN1CCc2ncccc2C1 [Compound 58] | Satisfied
CCCCCCN1CCc2ncccc2C1 [Compound 8] | Satisfied
CCCCOc1ccc(CN2CCc3ncccc3C2)cc1OCCCC [Compound 51] | Satisfied

---

method.description: Inhibition of spontaneous nystagmus produced by unilateral destruction of the labyrinth (anti-vertigo action)
Type: in vivo
measurement.setup: cats, 6 mg/kg injected intravenously
value.type: Duration of the effect of compounds (nystagmus)

compound | result
OC(CCCN1CCCCC1)(c1ccccc1)c1ccccc1 [diphenidol, reference compound] | 45 min
c1cnc2c(c1)CN(CC1CC1)CC2 | 19 min
C=CCN1CCc2ncccc2C1 | 40 min
CNCCc1ccccn1 [betahistine, reference compound] | 5 min
